target: Bcl-2-like protein 1 (Homo sapiens, UniProt Q07817)
Sequence (Q07817 whole entry): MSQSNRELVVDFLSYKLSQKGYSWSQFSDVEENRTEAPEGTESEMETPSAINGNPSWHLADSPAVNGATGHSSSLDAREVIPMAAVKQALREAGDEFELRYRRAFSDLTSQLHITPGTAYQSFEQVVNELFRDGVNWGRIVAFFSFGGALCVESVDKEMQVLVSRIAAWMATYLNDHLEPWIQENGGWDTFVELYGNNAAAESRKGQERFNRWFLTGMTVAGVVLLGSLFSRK
pIC50: −log10 of the molar value.
reported endpoint: pIC50

Which measured pIC50 belongs to CCOC(=O)CS(=O)(=O)c1nc(-c2ccc(F)cc2)cc(C(F)(F)F)n1 , tested on Bcl-2-like protein 1 (Homo sapiens, UniProt Q07817)?
< 4.00

---

These compounds were tested on Induced myeloid leukemia cell differentiation protein Mcl-1 (Homo sapiens); pKi is the recorded read-out.
Sequence (Q07820 whole entry): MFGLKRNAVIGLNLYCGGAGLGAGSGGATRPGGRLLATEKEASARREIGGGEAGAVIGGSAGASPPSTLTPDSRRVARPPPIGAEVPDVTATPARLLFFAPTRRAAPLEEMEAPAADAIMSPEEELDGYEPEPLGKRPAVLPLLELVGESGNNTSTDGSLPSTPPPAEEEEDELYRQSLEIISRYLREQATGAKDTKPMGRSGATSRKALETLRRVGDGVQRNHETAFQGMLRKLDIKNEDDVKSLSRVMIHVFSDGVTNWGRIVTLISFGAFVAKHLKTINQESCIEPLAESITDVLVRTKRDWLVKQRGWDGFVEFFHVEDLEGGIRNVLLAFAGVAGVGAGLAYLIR
// scale note: pKi = -log10(conc_M); give the bare number

>  <smiles structure>
O=C(O)CSc1cc(NS(=O)(=O)c2ccc(Br)cc2)c2ccccc2c1O

>  <pKi>
5.72

$$$$

Now examine the next entry.
Please state recorded pKi (tested on Induced myeloid leukemia cell differentiation protein Mcl-1 (Homo sapiens)) of O=C(O)CSc1cc(NS(=O)(=O)c2ccc(-c3ccccc3)cc2)c2ccccc2c1O
5.33

---

molecular target: Bcl-2-related protein A1 (Homo sapiens, UniProt Q16548); test: Inhibition of GST-tagged Bfl-1 (unknown origin) incubated for 60 min by TR-FRET assay
Sequence (Q16548 whole entry): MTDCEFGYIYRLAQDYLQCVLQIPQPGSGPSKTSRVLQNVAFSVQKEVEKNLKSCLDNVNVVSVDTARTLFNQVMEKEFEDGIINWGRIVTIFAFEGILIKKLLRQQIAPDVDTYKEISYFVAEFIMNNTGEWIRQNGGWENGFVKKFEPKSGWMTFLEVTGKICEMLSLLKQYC
reported endpoint: IC50 (nM)
Report the figure in nM without appending any unit label.

May I ask what IC50 has been recorded for COc1ccc(C(c2c(-c3ccccc3)n(O)c3ccccc23)N2CCN(C)CC2)cc1 (stereo unspecified) ?
1400
